Where do the numbers come from? From a flash point compilation (Sun et al. 2020).

Structures can show the parent of a compound that is named as a salt.
So basically, the class depends on measured flash point, and the ranges are group A (below 7 °C), group B (7 °C to below 50 °C), group C (50 °C or more)

Example cases with answers are listed next.
SCCCCCS | group C
CC(C)COC=O [isobutyl formate] | group B
C=CC1CC=CCC1 (stereo not drawn) | group B

Consider C=CCC(C)C . To which flash point class does it belong? group A

Can you handle CCCCON=O next? group A

Can you handle ClCCCCCCl next? group B

Can you handle O=Cc1ccccc1 next? group C

Can you handle ClCC(Cl)(Cl)Cl next? group B

Can you handle CC(=O)C(C)C next? group A

Can you handle CCCC(C)C next? group A
